Values from patent US20260217701A1

test: Rat PK study #4 (Compound A PO 0.2 and 1.0 mg/kg, propylene glycol formulation); type: in vivo, Lewis rats; settings: male, Lewis, rat, plasma, po, 0.2 mg/kg, 0.2 mg/kg PO, propylene glycol-based formulation; individual animals
property: Tmax (h)
Report only the number, with the unit h understood.

I'd like to know its Tmax. The compound in question is Cn1cc(-c2ccccc2)c(-c2cn(C)c(=O)c3[nH]c(-c4cnn(C(F)(F)F)c4)cc23)cc1=O
2

----------
assay: Rat PK study #1 (Compound A PO, methylcellulose vs propylene glycol formulation); assay type: in vivo, Lewis rats; conditions: male, rat, plasma; Lewis rats, PO 10 mg/kg, propylene glycol/Vitamin E TPGS/water formulation, individual animals; read-out: MRTInf_obs
property: MRT inf (h)
Expressed in h, but write only the number.

Fill blank: measured MRT inf of the molecule Cn1cc(-c2ccccc2)c(-c2cn(C)c(=O)c3[nH]c(-c4cnn(C(F)(F)F)c4)cc23)cc1=O [Compound A] is ____.
6.39

----------
Experiment: Dog PK study #4 (Compound A PO daily 14 days, 1/3/10 mg/kg; toxicokinetics, platelet counts)
Assay type: in vivo, beagle dogs
Settings: beagle, dog, plasma, oral; after daily administration for 14 days, 1 mg/kg, Male, 1 h
Protocol: The different doses of compound A were orally administered to animals (n=2/group, one male and one female animal) daily for 14 days. Blood samples were collected at 0.5, 1, 2, 4, 8, and 24 hours after administration of Compound A on Day 14, and EDTA-K2 was used as an anticoagulant. […] The concentration of Compound A in the blood plasma was determined through liquid chromatography-mass spectrometry (LC-MS). […]
property: concentration at 1 h (ng/mL)
State the answer as a number, implicitly in ng/mL.

Would you mind telling me what concentration at 1 h value was observed for Cn1cc(-c2ccccc2)c(-c2cn(C)c(=O)c3[nH]c(-c4cnn(C(F)(F)F)c4)cc23)cc1=O ?
56.7

----------
Test: Dog PK study #2 (Compound A IV, HPBCD formulation)
Assay type: in vivo, beagle dogs
Settings: beagle, dog, plasma, iv, 1 mg/kg, IV 1 mg/kg, HPBCD formulation, 2 h; individual animals; read-out: Plasma concentration
Method: For Dog PK study #2, a solution of Compound A was prepared in HPBCD (20% solution w/v)/DMSO (99/1) with a concentration of 0.5 mg/mL (Table 2B). The Compound A solution was administered to animals intravenously (IV), and animals were monitored over a 24 h period (Table 3C). Body weight was recorded prior to dosing, and detailed clinical observations were made prior to dosing and throughout the study, as needed. […]
property: concentration at 2 h (ng/mL)
# value in ng/mL; strip the unit string

Param item = Cn1cc(-c2ccccc2)c(-c2cn(C)c(=O)c3[nH]c(-c4cnn(C(F)(F)F)c4)cc23)cc1=O ; retrieve measured concentration at 2 h.
323

----------
experiment: CIA study: pharmacokinetics / plasma concentration after oral administration; type: in vivo, Lewis rats; settings: Lewis, rat, plasma, po, 3 mg/kg, oral 3 mg/kg, day 0, time 24
property: concentration at 24 h (ng/mL)
Number only, in ng/mL; omit the unit.

// query concentration at 24 h value for entry Cn1cc(-c2ccccc2)c(-c2cn(C)c(=O)c3[nH]c(-c4cnn(C(F)(F)F)c4)cc23)cc1=O
22.3

----------
assay: CIA study: pharmacokinetics / plasma concentration after oral administration; assay type: in vivo, Lewis rats; conditions: Lewis, rat, plasma, po, 3 mg/kg, oral 3 mg/kg, day 21, time 0.25; read-out: Mean Concentration (average plasma concentration)
property: concentration at 0.25 h (ng/mL)
Please reply with the bare figure in ng/mL and do not write the unit itself.

For the molecule shown here, Cn1cc(-c2ccccc2)c(-c2cn(C)c(=O)c3[nH]c(-c4cnn(C(F)(F)F)c4)cc23)cc1=O , give the reported concentration at 0.25 h.
15.4

----------
experiment: Dog PK study #3 (Compound A PO once daily 5 days, 5/10/20 mg/kg; PK, body weight, hematology); type: in vivo, beagle dogs; details: male, beagle, dog, plasma, po, 5 mg/kg, Day 1, 5 mg/kg dose PO; individual animals
property: Tmax (h)
Kindly answer with a numeric value in h, unit omitted.

// returns reported Tmax for input Cn1cc(-c2ccccc2)c(-c2cn(C)c(=O)c3[nH]c(-c4cnn(C(F)(F)F)c4)cc23)cc1=O
8

----------
assay: Rat PK study #1 (Compound A PO, methylcellulose vs propylene glycol formulation); assay type: in vivo, Lewis rats; conditions: male, rat, plasma; Lewis rats, PO 10 mg/kg, propylene glycol/Vitamin E TPGS/water formulation, individual animals
property: half-life (h)
The answer is to be given in h; state only the numeric part.

For the compound Cn1cc(-c2ccccc2)c(-c2cn(C)c(=O)c3[nH]c(-c4cnn(C(F)(F)F)c4)cc23)cc1=O , what half-life is on record?
4.33

----------
experiment: Dog PK study #3 (Compound A PO once daily 5 days, 5/10/20 mg/kg; PK, body weight, hematology); type: in vivo, beagle dogs; conditions: male, beagle, dog, plasma, po, 10 mg/kg, Day 5, 10 mg/kg dose PO; individual animals; read-out: MRT0-last
property: MRT last (h)
// note: answer is a bare numeric in h

Find the recorded MRT last belonging to Cn1cc(-c2ccccc2)c(-c2cn(C)c(=O)c3[nH]c(-c4cnn(C(F)(F)F)c4)cc23)cc1=O and report it.
8.5

----------
assay: Rat PK study #4 (Compound A PO 0.2 and 1.0 mg/kg, propylene glycol formulation); format: in vivo, Lewis rats; conditions: male, Lewis, rat, plasma, po, 0.2 mg/kg, Lewis rats, PO 0.2 mg/kg, propylene glycol-based formulation, 2 h, individual animals
property: concentration at 2 h (ng/mL)
# output: bare number, implied unit ng/mL

Need concentration at 2 h of Cn1cc(-c2ccccc2)c(-c2cn(C)c(=O)c3[nH]c(-c4cnn(C(F)(F)F)c4)cc23)cc1=O , thanks.
7.99

----------
assay: CIA study: pharmacokinetics / plasma concentration after oral administration; type: in vivo, Lewis rats; conditions: Lewis, rat, plasma, po, 3 mg/kg, oral 3 mg/kg, day 21, 1 h, individual test subjects; read-out: Plasma concentration
property: concentration at 1 h (ng/mL)
Response body: numeric value in ng/mL, unit text excluded.

Recorded concentration at 1 h of Cn1cc(-c2ccccc2)c(-c2cn(C)c(=O)c3[nH]c(-c4cnn(C(F)(F)F)c4)cc23)cc1=O [Compound A] , please.
33.6

----------
assay: CIA study: pharmacokinetics / plasma concentration after oral administration; format: in vivo, Lewis rats; conditions: Lewis, rat, plasma, po, 3 mg/kg, CIA-induced animals, day 21, 3 mg/kg, individual test subjects; read-out: AUCInf
property: AUC(0-inf)
// return the numeric value with its unit appended

Report AUC(0-inf) for Cn1cc(-c2ccccc2)c(-c2cn(C)c(=O)c3[nH]c(-c4cnn(C(F)(F)F)c4)cc23)cc1=O please.
668 ng·h/mL

----------
assay: Dog PK study #3 (Compound A PO once daily 5 days, 5/10/20 mg/kg; PK, body weight, hematology); format: in vivo, beagle dogs; details: male, beagle, dog, plasma, po, 10 mg/kg, Day 1, 10 mg/kg dose PO; mean; read-out: MRT0-last
property: MRT last
Dear colleague, please send the value followed by its unit.

Any idea what MRT last was measured for Cn1cc(-c2ccccc2)c(-c2cn(C)c(=O)c3[nH]c(-c4cnn(C(F)(F)F)c4)cc23)cc1=O ?
7.72 h

----------
target: BRD4 BD1 (Homo sapiens, UniProt O60885); construct: HEK293 cells were transfected using NanoLuc-BRD4-BD1 or NanoLuc-BRD4-BD2 fusion vectors; assay: NanoBRET bromodomain assay, NanoLuc-BRD4-BD1 in HEK293 cells; format: binding; settings: reference level for dog plasma concentrations (Dog PK study #4); read-out: free EC50 BD1 BRD4
property: pEC50
API: returns pEC50 as number; meaning -log10 of concentration in mol/L.

Give BRD4 BD1 (Homo sapiens, UniProt O60885) pEC50 for Cn1cc(-c2ccccc2)c(-c2cn(C)c(=O)c3[nH]c(-c4cnn(C(F)(F)F)c4)cc23)cc1=O [Compound A]
3.86

----------
assay: Dog PK study #3 (Compound A PO once daily 5 days, 5/10/20 mg/kg; PK, body weight, hematology); assay type: in vivo, beagle dogs; conditions: male, beagle, dog, plasma, po, 5 mg/kg, Day 1, 5 mg/kg dose PO; individual animals
property: AUC(0-t)

Give its AUC(0-t) value. Item: Cn1cc(-c2ccccc2)c(-c2cn(C)c(=O)c3[nH]c(-c4cnn(C(F)(F)F)c4)cc23)cc1=O
11600 ng·h/mL

----------
assay: Rat PK study #1 (Compound A PO, methylcellulose vs propylene glycol formulation); type: in vivo, Lewis rats; conditions: male, Lewis, rat, plasma, po, 10 mg/kg, Lewis rats, PO 10 mg/kg, propylene glycol/Vitamin E TPGS/water formulation, 0.25 h, mean of 3 animals
property: concentration at 0.25 h (ng/mL)
Supply the numeric figure in ng/mL, leaving out any unit text.

Look at this molecule and give its reported concentration at 0.25 h. Cn1cc(-c2ccccc2)c(-c2cn(C)c(=O)c3[nH]c(-c4cnn(C(F)(F)F)c4)cc23)cc1=O
43.8
